- TARGET SYSTEM: Human recombinant FAP (Homo sapiens, UniProt Q12884)
- Sequence (Q12884 whole entry): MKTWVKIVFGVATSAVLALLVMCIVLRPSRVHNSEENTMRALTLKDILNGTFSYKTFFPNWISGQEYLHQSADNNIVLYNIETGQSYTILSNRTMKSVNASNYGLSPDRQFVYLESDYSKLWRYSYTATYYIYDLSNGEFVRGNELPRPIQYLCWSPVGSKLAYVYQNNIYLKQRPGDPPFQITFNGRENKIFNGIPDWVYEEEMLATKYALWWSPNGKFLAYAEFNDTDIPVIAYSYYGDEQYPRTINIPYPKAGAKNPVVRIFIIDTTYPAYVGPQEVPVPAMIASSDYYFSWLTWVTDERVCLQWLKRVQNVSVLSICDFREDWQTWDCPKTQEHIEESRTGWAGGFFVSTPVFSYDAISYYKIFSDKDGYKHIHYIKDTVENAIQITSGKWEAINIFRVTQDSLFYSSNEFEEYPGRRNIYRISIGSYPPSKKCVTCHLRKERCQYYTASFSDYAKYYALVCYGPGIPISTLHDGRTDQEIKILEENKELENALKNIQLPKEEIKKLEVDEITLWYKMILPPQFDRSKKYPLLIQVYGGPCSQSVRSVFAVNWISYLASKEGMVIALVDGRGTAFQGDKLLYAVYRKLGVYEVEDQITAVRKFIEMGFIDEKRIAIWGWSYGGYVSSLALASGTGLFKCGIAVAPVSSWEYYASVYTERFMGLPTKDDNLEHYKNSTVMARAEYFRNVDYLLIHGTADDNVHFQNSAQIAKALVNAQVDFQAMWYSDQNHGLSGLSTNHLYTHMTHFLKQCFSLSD
- MEASUREMENT DESCRIPTION: FRET-based FAP protease activity assay
- Type: biochemical
- Set-up: purchased R&D systems 3715-SE
- CONDITION PARAMETERS: pIC50 Category (Activity), FRET substrate, 37° C.
pIC50: −log10 of the molar value.
We begin with a simple list: items and their reported pIC50.

Observe how each entry below is paired with its result.
CCCCCC(=O)N[C@H]1CSCc2cc(CSCCN)cc(c2)CSC[C@@H](C(=O)O)NC(=O)[C@H](Cc2ccccc2)NC(=O)[C@H](CCC(N)=O)NC(=O)[C@H]([C@@H](C)O)NC(=O)[C@@H]2CCCN2C(=O)[C@@H]2CCCN2C1=O	7.10 to 8.00
CCCCCC(=O)N[C@H]1CSCc2cc(CSCCNC(=O)COCCOCCNC(=O)C(CNCCN)CNCCN)cc(c2)CSC[C@@H](C(=O)O)NC(=O)[C@H](Cc2ccccc2)NC(=O)[C@H](CCC(N)=O)NC(=O)[C@H]([C@@H](C)O)NC(=O)[C@@H]2CCCN2C(=O)[C@@H]2CCCN2C1=O	> 8.00

Give recorded pIC50 with Human recombinant FAP (Homo sapiens, UniProt Q12884) for the following compound: CCCCCC(=O)N[C@H]1CSCc2cc(CSCCNC(=O)CN(CCN(CCN(CC(=O)O)CC(=O)O)CC(=O)O)CC(=O)O)cc(c2)CSC[C@@H](C(=O)O)NC(=O)[C@H](Cc2ccccc2)NC(=O)[C@H](CCC(N)=O)NC(=O)[C@H]([C@@H](C)O)NC(=O)[C@@H]2CCCN2C(=O)[C@@H]2CCCN2C1=O
7.10 to 8.00

Again, but for CCCC[C@H](NC(=O)CCC(=O)NCCCOCCOCCOCCCNC(=O)C(CNCCN)CNCCN)C(=O)N[C@H]1CSCc2cccc(c2)CSC[C@@H](C(=O)O)NC(=O)[C@H](Cc2ccccc2)NC(=O)[C@H](CCC(N)=O)NC(=O)[C@H]([C@@H](C)O)NC(=O)[C@@H]2CCCN2C(=O)[C@@H]2CCCN2C1=O
> 8.00

###

Measured IC50, listed per entry.
- TARGET SYSTEM: FAP-expressing human WI-38 fibroblasts (Homo sapiens, UniProt Q12884)
- Construct: FAP-expressing human WI-38 fibroblasts (ECACC) were cultured in EMEM; host or cells: WI-38 human fibroblasts
- MEASUREMENT DESCRIPTION: Competitive FACS binding assay
- CONDITION PARAMETERS: pIC50 Category (FACS), competition with 3 nM Cy5-labeled compound, WI-38 fibroblasts, 4° C., 1 hour
Numbered stars: 1 amine (or outer) side, 2 acyl side, 3 side chain; on linkers, the order of the positions; unused ones are H or OH. Bridge positions count the residues as written; N and C are the ends. Square brackets hold non-standard residues; d marks the D form. Peptide text beside a SMILES is read from it. * marks the point of attachment. DOTA = O=C(O)CN1CCN(CC(=O)O)CCN(CC(=O)*)CCN(CC(=O)O)CC1; mXylylene = c1cc(C[*:1])cc(C[*:2])c1; 3Amb = NCc1cccc(C(=O)O)c1; Nle = CCCC[C@H](N)C(=O)O; Hexanoyl = CCCCCC(=O)*

CCCCCC(=O)N[C@H]1CSCc2cccc(c2)CSC[C@@H](C(=O)N[C@@H](CC(=O)O)C(=O)NCc2cccc(C(=O)N[C@@H](CCCNC(=N)N)C(N)=O)c2)NC(=O)[C@H](Cc2ccccc2)NC(=O)[C@H](CCC(=O)O)NC(=O)[C@H]([C@@H](C)O)NC(=O)[C@@H]2CCCN2C(=O)[C@@H]2CCCN2C1=O [3BP-3324] (Hexanoyl-CPPTEFCD[3Amb]R-NH2; linker 1-7 via mXylylene)	< 10 nM

Now examine the next entry.
# IC50 lookup, item CCCC[C@H](NC(=O)CN1CCN(CC(=O)O)CCN(CC(=O)O)CCN(CC(=O)O)CC1)C(=O)N[C@H]1CSCc2cccc(c2)CSC[C@@H](C(=O)N[C@@H](CC(=O)O)C(=O)N[C@@H](Cc2c[nH]cn2)C(=O)N[C@@H](Cc2ccccc2)C(=O)N[C@@H](CCCNC(=N)N)C(=O)N[C@@H](CC(=O)O)C(N)=O)NC(=O)[C@H](Cc2ccccc2)NC(=O)[C@H](CCC(=O)O)NC(=O)[C@H]([C@@H](C)O)NC(=O)[C@@H]2CCCN2C(=O)[C@@H]2CCCN2C1=O [3BP-3088] ({DOTA}-[Nle]CPPTEFCDHFRD-NH2; linker 2-8 via mXylylene)
100 to 794 nM
